Some molecules, each annotated with its measured MIC.
test system: S. aureus ATCC 6538; assay: MIC by broth microdilution, S. aureus; assay type: cell-based; conditions: Staphylococcus aureus, ATCC6538, No Zinc; read-out: S. aureus ATCC 6538 MIC

Worked set:
molecule	MIC
CN(C)Cc1ccc2cccc(NS(=O)(=O)c3cccc(O)c3)c2n1 [ZDR163]	> 256 µg/mL
CN(C)Cc1ccc2cccc(NS(=O)(=O)CC3CC3)c2n1 [ZDR503]	> 256 µg/mL

Okay, next one:
Query :: What value of measured MIC is listed for CN(C)Cc1ccc2cccc(NS(=O)(=O)c3cccc(C(F)(F)F)c3)c2n1 [ZDR074] ?
Result :: > 256 µg/mL

----------
Some molecules, each annotated with its measured MIC.
system: S. aureus ATCC 6538; assay: MIC by broth microdilution, S. aureus; type: cell-based; conditions: Staphylococcus aureus, ATCC6538, No Zinc; read-out: S. aureus ATCC 6538 MIC

smiles.record	subject.of.test	MIC
CN(C)Cc1ccc2cccc(NS(=O)(=O)c3ccc(O)cc3)c2n1	S. aureus ATCC 6538	> 256 µg/mL
Cc1nc(C)c(S(=O)(=O)Nc2cccc3ccc(CN(C)C)nc23)s1	S. aureus ATCC 6538	> 256 µg/mL
COc1ccc(S(=O)(=O)Nc2cccc3ccc(CN(C)C)nc23)cn1	S. aureus ATCC 6538	> 256 µg/mL
CCCCS(=O)(=O)Nc1cccc2ccc(CN(C)C)nc12	S. aureus ATCC 6538	> 256 µg/mL

Query :: Find the recorded MIC belonging to "CSc1ccc(S(=O)(=O)Nc2cccc3ccc(CN(C)C)nc23)cc1" and report it.
Result :: > 256 µg/mL

Query :: Next molecule up: "COc1ccc(S(=O)(=O)Nc2cccc3ccc(CN(C)C)nc23)cc1"
Result :: > 256 µg/mL

Query :: Would you mind doing "O=S(=O)(Nc1cccc2ccc(CN3CCOCC3)nc12)c1ccc(C(F)(F)F)cc1" as well?
Result :: > 256 µg/mL

Query :: Also "CS(=O)(=O)NCc1ccc2cccc(NS(=O)(=O)c3ccc(C(F)(F)F)cc3)c2n1" ?
Result :: > 256 µg/mL

----------
system: S. aureus ATCC 6538; assay: MIC by broth microdilution, S. aureus; format: cell-based; settings: Staphylococcus aureus, ATCC6538, No Zinc; read-out: S. aureus ATCC 6538 MIC
parameter: MIC

compound	MIC
CN(C)Cc1ccc2cccc(NS(=O)(=O)c3cccc(N)c3)c2n1 [ZDR162]	> 256 µg/mL
O=C(N/N=C/c1ccc2cccc(NS(=O)(=O)c3ccc(C(F)(F)F)cc3)c2n1)c1ccccc1 [ZDR045]	> 256 µg/mL

Consider the record given below.
Query :: Item under review: C#CCS(=O)(=O)Nc1cccc2ccc(CN(C)C)nc12 [ZDR506] . Reported MIC?
Result :: > 256 µg/mL

----------
tested on: S. aureus ATCC 6538; experiment: MIC by broth microdilution, S. aureus; format: cell-based; settings: Staphylococcus aureus, ATCC6538, No Zinc; read-out: S. aureus ATCC 6538 MIC
parameter: MIC (µg/mL)

In the examples that follow, each entry is paired with its recorded MIC.
compound	subject.of.test	parameter	scale.unit	observed
CNCc1ccc2cccc(NS(=O)(=O)c3ccc(C(F)(F)F)cc3)c2n1	S. aureus ATCC 6538	MIC	µg/mL	16
CN(C)Cc1ccc2cccc(NS(=O)(=O)c3ccc(C(F)(F)F)cc3)c2n1.Cl [ZDR022-HCl]	S. aureus ATCC 6538	MIC	µg/mL	64
CCNCc1ccc2cccc(NS(=O)(=O)c3ccc(C(F)(F)F)cc3)c2n1	S. aureus ATCC 6538	MIC	µg/mL	32
CN(C)Cc1ccc2cccc(NS(=O)(=O)c3ccc(OC(F)(F)F)cc3)c2n1	S. aureus ATCC 6538	MIC	µg/mL	256

(a) CN(C)Cc1ccc2cccc(NS(=O)(=O)c3ccc(C=O)cc3)c2n1
(b) O=S(=O)(NCCNCc1ccc2cccc(NS(=O)(=O)c3ccc(C(F)(F)F)cc3)c2n1)c1ccccc1
(c) CN(C)Cc1ccc2cccc(NS(=O)(=O)c3ccc(C(F)(F)F)cc3)c2n1
(d) O=S(=O)(Nc1cccc2ccc(CNCCOCCO)nc12)c1ccc(C(F)(F)F)cc1
(e) O=S(=O)(Nc1cccc2ccc(CNc3ccccc3O)nc12)c1ccc(C(F)(F)F)cc1
Query :: // sort entries: MIC, high to low Give the labels in the order requested.
Result :: a, b, d, c, e
(a: 256 µg/mL, b: 64 µg/mL, d: 32 µg/mL, c: 16 µg/mL, e: 4 µg/mL)

----------
system: E. coli ATCC 10596; experiment: MIC by broth microdilution, E. coli; type: cell-based; conditions: Escherichia coli, ATCC 10536 / ATCC 10596, Zinc (50 μM); read-out: E. coli ATCC 10536 MIC
parameter: MIC

Query :: Any idea what MIC was measured for "O=S(=O)(Nc1cccc2ccc(CNC(CO)(CO)CO)nc12)c1ccc(C(F)(F)F)cc1" ?
Result :: 64 µg/mL

Query :: Follow-up entry: "O=S(=O)(Nc1cccc2ccc(CN(CCO)CCO)nc12)c1ccc(C(F)(F)F)cc1"
Result :: 256 µg/mL

Query :: Please give the result for O=S(=O)(Nc1cccc2ccc(CNCC(O)CO)nc12)c1ccc(C(F)(F)F)cc1 (centres unmarked) too.
Result :: > 256 µg/mL

Query :: Next: "CN(C)CC(=O)NCc1ccc2cccc(NS(=O)(=O)c3ccc(C(F)(F)F)cc3)c2n1"
Result :: > 256 µg/mL

----------
system: E. coli ATCC 10596; assay: MIC by broth microdilution, E. coli; format: cell-based; conditions: Escherichia coli, ATCC 10536 / ATCC 10596, Zinc (50 μM); read-out: E. coli ATCC 10536 MIC
Some compounds, each annotated with its measured MIC.

compound	observed
CN(C)Cc1ccc2cccc(NS(=O)(=O)c3cccs3)c2n1 [ZDR080]	> 256 µg/mL
CN(C)Cc1ccc2cccc(NS(=O)(=O)N3CCCCC3)c2n1 [ZDR193]	> 256 µg/mL
O=S(=O)(Nc1cccc2ccc(CNCC3CCCCC3)nc12)c1ccc(C(F)(F)F)cc1 [ZDR406]	256 µg/mL

Query :: Item CN(C)Cc1ccc2cccc(NS(=O)(=O)c3ccc(Br)cc3)c2n1 [ZDR305] has what recorded MIC?
Result :: > 256 µg/mL

Query :: Another compound: CN(C)Cc1ccc2cccc(NS(=O)(=O)c3cccnc3)c2n1 [ZDR328]
Result :: > 256 µg/mL

Query :: Same again, this time with O=S(=O)(Nc1cccc2ccc(/C=N/NC(=S)NCCN3CCOCC3)nc12)c1ccc(C(F)(F)F)cc1 [ZDR119]
Result :: > 256 µg/mL

----------
tested on: E. coli ATCC 10596; assay: MIC by broth microdilution, E. coli; type: cell-based; conditions: Escherichia coli, ATCC 10536 / ATCC 10596, Zinc (50 μM); read-out: E. coli ATCC 10536 MIC
In this section, each of the compounds is paired with its reported MIC.

Examples with answers:
compound	MIC
O=S(=O)(Nc1cccc2ccc(CN3CCCC3)nc12)c1ccc(C(F)(F)F)cc1 [ZDR407]	256 µg/mL
O=S(=O)(Nc1cccc2ccc(CNC(CO)CO)nc12)c1ccc(C(F)(F)F)cc1 [ZDR092]	> 256 µg/mL
CC(=O)Nc1ccc(S(=O)(=O)Nc2cccc3ccc(CN(C)C)nc23)cc1 [ZDR072]	> 256 µg/mL
CNCc1ccc2cccc(NS(=O)(=O)c3ccc(C(F)(F)F)cc3)c2n1 [ZDR024]	≥ 256 µg/mL
O=S(=O)(Nc1cccc2ccc(CNCc3ccncc3)nc12)c1ccc(C(F)(F)F)cc1 [ZDR110]	> 256 µg/mL

Query :: Find the recorded MIC belonging to CN(C)Cc1ccc2cccc(NS(=O)(=O)c3cccc(N)c3)c2n1 [ZDR162] and report it.
Result :: > 256 µg/mL

Query :: Now the compound CN(C)Cc1ccc2cccc(NS(=O)(=O)c3ccc(OC(F)F)cc3)c2n1 [ZDR306]
Result :: > 256 µg/mL

----------
system: S. aureus ATCC 6538; assay: MBC by Miles-Misra drop-plate method, S. aureus; assay type: cell-based; settings: Staphylococcus aureus, ATCC6538, Zinc (50 μM); read-out: S. aureus ATCC 6538 MBC
Entries annotated with measured MBC

smiles.record	parameter	observed
CN(C)Cc1ccc2cccc(NS(=O)(=O)c3ccc(Cl)cc3Cl)c2n1	MBC	> 256 µg/mL
O=S(=O)(Nc1cccc2ccc(CNCCCN3CCOCC3)nc12)c1ccc(C(F)(F)F)cc1	MBC	> 256 µg/mL

Please turn your attention to the following entry.
Query :: What value of MBC has been reported for the following compound? "N/N=C/c1ccc2cccc(NS(=O)(=O)c3ccc(C(F)(F)F)cc3)c2n1"
Result :: > 256 µg/mL
